Hi there, I'd appreciate the recorded mass density for every entry that follows.
- CONDITION SET: 357.15 K; 100 kPa; Liquid; Vibrating tube method
Give bare numbers, in kg/m3.

{"ITEM SMILES": "CCCC[N+](C)(C)CC.O=S(=O)([N-]S(=O)(=O)C(F)(F)F)C(F)(F)F", "mass density [kg/m3]": 1320.8}
{"ITEM SMILES": "CC[N+](C)(C)CCCO.O=S(=O)([N-]S(=O)(=O)C(F)(F)F)C(F)(F)F", "mass density [kg/m3]": 1412.5}
{"ITEM SMILES": "CC[N+](CCO)(CCO)CCO.O=S(=O)([N-]S(=O)(=O)C(F)(F)F)C(F)(F)F", "mass density [kg/m3]": 1478.7}
{"ITEM SMILES": "C[N+](CCO)(CCO)CCO.O=S(=O)([N-]S(=O)(=O)C(F)(F)F)C(F)(F)F", "mass density [kg/m3]": 1514.5}
{"ITEM SMILES": "CCCC[N+](CCO)(CCO)CCO.O=S(=O)([N-]S(=O)(=O)C(F)(F)F)C(F)(F)F", "mass density [kg/m3]": 1406.1}
{"ITEM SMILES": "CC[N+](C)(CCO)CCO.O=S(=O)([N-]S(=O)(=O)C(F)(F)F)C(F)(F)F", "mass density [kg/m3]": 1463.5}

From here, focus on the item given below.
Recorded result, CC[N+](C)(C)CCOC.O=S(=O)([N-]S(=O)(=O)C(F)(F)F)C(F)(F)F , mass density: 1376.9

* * *

For each of the molecules below, state its mass density.
- CONDITION SET: 323.15 K; 100 kPa; Liquid; Vibrating tube method
Give bare numbers, in kg/m3.

Previously resolved entries follow.
{"ITEM SMILES": "CC[N+](C)(C)CCOC.O=S(=O)([N-]S(=O)(=O)C(F)(F)F)C(F)(F)F", "PROPERTY NAME": "mass density", "EXPERIMENTAL VALUE": 1407.7}
{"ITEM SMILES": "CCCC[N+](C)(C)CC.O=S(=O)([N-]S(=O)(=O)C(F)(F)F)C(F)(F)F", "PROPERTY NAME": "mass density", "EXPERIMENTAL VALUE": 1349.7}
{"ITEM SMILES": "CC[N+](C)(C)CCCO.O=S(=O)([N-]S(=O)(=O)C(F)(F)F)C(F)(F)F", "PROPERTY NAME": "mass density", "EXPERIMENTAL VALUE": 1441.6}

Look up mass density for the entries below, preserving their order.
1. CC[N+](C)(CCO)CCO.O=S(=O)([N-]S(=O)(=O)C(F)(F)F)C(F)(F)F
2. CC[N+](CCO)(CCO)CCO.O=S(=O)([N-]S(=O)(=O)C(F)(F)F)C(F)(F)F
3. C[N+](CCO)(CCO)CCO.O=S(=O)([N-]S(=O)(=O)C(F)(F)F)C(F)(F)F

-- reply
1: 1492.8; 2: 1507.8; 3: 1544.3

Measured mass density, CCCC[N+](CCO)(CCO)CCO.O=S(=O)([N-]S(=O)(=O)C(F)(F)F)C(F)(F)F : 1435

* * *

Consider the following molecules; for each one, report its mass density.
- CONDITION SET: 350.15 K; 100 kPa; Liquid; Vibrating tube method
Numbers only, in kg/m3.

Please review the following examples before continuing.
{"ITEM SMILES": "CCCC[N+](CCO)(CCO)CCO.O=S(=O)([N-]S(=O)(=O)C(F)(F)F)C(F)(F)F", "UNIT SPEC": "kg/m3", "EXPERIMENTAL VALUE": 1411.9}
{"ITEM SMILES": "CC[N+](C)(CCO)CCO.O=S(=O)([N-]S(=O)(=O)C(F)(F)F)C(F)(F)F", "UNIT SPEC": "kg/m3", "EXPERIMENTAL VALUE": 1469.4}
{"ITEM SMILES": "CCCC[N+](C)(C)CC.O=S(=O)([N-]S(=O)(=O)C(F)(F)F)C(F)(F)F", "UNIT SPEC": "kg/m3", "EXPERIMENTAL VALUE": 1326.7}
{"ITEM SMILES": "CC[N+](C)(C)CCOC.O=S(=O)([N-]S(=O)(=O)C(F)(F)F)C(F)(F)F", "UNIT SPEC": "kg/m3", "EXPERIMENTAL VALUE": 1383.1}
{"ITEM SMILES": "C[N+](CCO)(CCO)CCO.O=S(=O)([N-]S(=O)(=O)C(F)(F)F)C(F)(F)F", "UNIT SPEC": "kg/m3", "EXPERIMENTAL VALUE": 1520.5}

I need mass density for every entry listed below, if you could help.
1. CC[N+](CCO)(CCO)CCO.O=S(=O)([N-]S(=O)(=O)C(F)(F)F)C(F)(F)F
2. CC[N+](C)(C)CCCO.O=S(=O)([N-]S(=O)(=O)C(F)(F)F)C(F)(F)F

-- reply
[1484.6, 1418.4]

* * *

- CONDITION SET: 300.16 K; 100 kPa; Liquid; Vibrating tube method
Numbers after ± are expanded uncertainties.
PROPERTY NAME: mass density

Example compounds with recorded mass density:
{"ITEM SMILES": "CC[N+](C)(C)CCOC.O=S(=O)([N-]S(=O)(=O)C(F)(F)F)C(F)(F)F", "mass density": "1429.1 ± 1.1 kg/m3"}
{"ITEM SMILES": "CC[N+](C)(C)CCCO.O=S(=O)([N-]S(=O)(=O)C(F)(F)F)C(F)(F)F", "mass density": "1461.7 ± 1.2 kg/m3"}
{"ITEM SMILES": "CC[N+](CCO)(CCO)CCO.O=S(=O)([N-]S(=O)(=O)C(F)(F)F)C(F)(F)F", "mass density": "1528 ± 1.2 kg/m3"}
{"ITEM SMILES": "C[N+](CCO)(CCO)CCO.O=S(=O)([N-]S(=O)(=O)C(F)(F)F)C(F)(F)F", "mass density": "1565 ± 1.2 kg/m3"}
{"ITEM SMILES": "CC[N+](C)(CCO)CCO.O=S(=O)([N-]S(=O)(=O)C(F)(F)F)C(F)(F)F", "mass density": "1513.4 ± 1.2 kg/m3"}

Value sought for every listed compound: mass density.
1. CCCC[N+](CCO)(CCO)CCO.O=S(=O)([N-]S(=O)(=O)C(F)(F)F)C(F)(F)F
2. CCCC[N+](C)(C)CC.O=S(=O)([N-]S(=O)(=O)C(F)(F)F)C(F)(F)F

-- reply
1. 1454.9 ± 1.2 kg/m3
2. 1369.9 ± 1.1 kg/m3

* * *

- CONDITION SET: 301.15 K; 100 kPa; Liquid; Vibrating tube method
Record form. Attribute: mass density. Fill in for each entry.
One number for each entry, in kg/m3.

Go through the list and state mass density for each entry.
1. CC[N+](C)(CCO)CCO.O=S(=O)([N-]S(=O)(=O)C(F)(F)F)C(F)(F)F
2. C[N+](CCO)(CCO)CCO.O=S(=O)([N-]S(=O)(=O)C(F)(F)F)C(F)(F)F
3. CCCC[N+](CCO)(CCO)CCO.O=S(=O)([N-]S(=O)(=O)C(F)(F)F)C(F)(F)F

-- reply
1. 1512.5
2. 1564.1
3. 1454

* * *

- CONDITION SET: 341.15 K; 100 kPa; Liquid; Vibrating tube method
Numbers after ± are expanded uncertainties.
PROPERTY NAME: mass density

Solved cases below.
{"ITEM SMILES": "CC[N+](CCO)(CCO)CCO.O=S(=O)([N-]S(=O)(=O)C(F)(F)F)C(F)(F)F", "mass density": "1492.3 ± 1.2 kg/m3"}
{"ITEM SMILES": "CC[N+](C)(CCO)CCO.O=S(=O)([N-]S(=O)(=O)C(F)(F)F)C(F)(F)F", "mass density": "1477.1 ± 1.2 kg/m3"}
{"ITEM SMILES": "CCCC[N+](CCO)(CCO)CCO.O=S(=O)([N-]S(=O)(=O)C(F)(F)F)C(F)(F)F", "mass density": "1419.5 ± 1.1 kg/m3"}
{"ITEM SMILES": "CC[N+](C)(C)CCCO.O=S(=O)([N-]S(=O)(=O)C(F)(F)F)C(F)(F)F", "mass density": "1426.1 ± 1.1 kg/m3"}
{"ITEM SMILES": "C[N+](CCO)(CCO)CCO.O=S(=O)([N-]S(=O)(=O)C(F)(F)F)C(F)(F)F", "mass density": "1528.4 ± 1.2 kg/m3"}

Hey, quick one: what's mass density for each of these?
1. CC[N+](C)(C)CCOC.O=S(=O)([N-]S(=O)(=O)C(F)(F)F)C(F)(F)F
2. CCCC[N+](C)(C)CC.O=S(=O)([N-]S(=O)(=O)C(F)(F)F)C(F)(F)F

-- reply
1391.3 ± 1.1 kg/m3
1334.3 ± 1.1 kg/m3
